Source of measurements: BigSolDB 2.1

conditions: in ethyl acetate, 248.2 K
metric_name: solubility (mole fraction)
Respond with the number and no other words.

Need solubility (mole fraction), item `C=C1CC[C@H](O)C/C1=C/C=C1\CCC[C@]2(C)[C@@H]([C@H](C)CCCC(C)C)CC[C@@H]12`
0.0219

* * *

conditions: in acetone, 273.2 K
metric_name: solubility (mole fraction)
Respond with the number and no other words.

Need solubility (mole fraction), item `C=C1CC[C@H](O)C/C1=C/C=C1\CCC[C@]2(C)[C@@H]([C@H](C)CCCC(C)C)CC[C@@H]12`
0.028

* * *

conditions: in ethanol, 268.2 K
metric_name: solubility (mole fraction)
Respond with the number and no other words.

Need solubility (mole fraction), item `C=C1CC[C@H](O)C/C1=C/C=C1\CCC[C@]2(C)[C@@H]([C@H](C)CCCC(C)C)CC[C@@H]12`
0.116

* * *

conditions: in n-propanol, 258.2 K
metric_name: solubility (mole fraction)

Need solubility (mole fraction), item `C=C1CC[C@H](O)C/C1=C/C=C1\CCC[C@]2(C)[C@@H]([C@H](C)CCCC(C)C)CC[C@@H]12`
0.111

* * *

settings: in n-propanol, 273.2 K
metric_name: solubility (mole fraction)
Respond with the number and no other words.

Need solubility (mole fraction), item `C=C1CC[C@H](O)C/C1=C/C=C1\CCC[C@]2(C)[C@@H]([C@H](C)CCCC(C)C)CC[C@@H]12`
0.193

* * *

conditions: in methanol, 263.2 K
metric_name: solubility (mole fraction)
Respond with the number and no other words.

Need solubility (mole fraction), item `C=C1CC[C@H](O)C/C1=C/C=C1\CCC[C@]2(C)[C@@H]([C@H](C)CCCC(C)C)CC[C@@H]12`
0.0046

* * *

settings: in n-propanol, 268.2 K
metric_name: solubility (mole fraction)

Need solubility (mole fraction), item `C=C1CC[C@H](O)C/C1=C/C=C1\CCC[C@]2(C)[C@@H]([C@H](C)CCCC(C)C)CC[C@@H]12`
0.163

* * *

conditions: in methanol, 268.2 K
metric_name: solubility (mole fraction)
Respond with the number and no other words.

Need solubility (mole fraction), item `C=C1CC[C@H](O)C/C1=C/C=C1\CCC[C@]2(C)[C@@H]([C@H](C)CCCC(C)C)CC[C@@H]12`
0.00625

* * *

settings: in acetone, 263.2 K
metric_name: solubility (mole fraction)
Respond with the number and no other words.

Need solubility (mole fraction), item `C=C1CC[C@H](O)C/C1=C/C=C1\CCC[C@]2(C)[C@@H]([C@H](C)CCCC(C)C)CC[C@@H]12`
0.0143

* * *

conditions: in ethyl acetate, 273.2 K
metric_name: solubility (mole fraction)
Respond with the number and no other words.

Need solubility (mole fraction), item `C=C1CC[C@H](O)C/C1=C/C=C1\CCC[C@]2(C)[C@@H]([C@H](C)CCCC(C)C)CC[C@@H]12`
0.0883

* * *

conditions: in acetone, 268.2 K
metric_name: solubility (mole fraction)
Respond with the number and no other words.

Need solubility (mole fraction), item `C=C1CC[C@H](O)C/C1=C/C=C1\CCC[C@]2(C)[C@@H]([C@H](C)CCCC(C)C)CC[C@@H]12`
0.0192

* * *

details: in acetone, 248.2 K
metric_name: solubility (mole fraction)
Respond with the number and no other words.

Need solubility (mole fraction), item `C=C1CC[C@H](O)C/C1=C/C=C1\CCC[C@]2(C)[C@@H]([C@H](C)CCCC(C)C)CC[C@@H]12`
0.00611
